Measured values drawn from PubChem BioAssay AID1963845 for this set.

# Tested on: 429239-143-T-J1-PDC complex spheroid viability
# run.description: Anticancer human tumor 429239-143-T-J1-PDC patient-derived small cell lung carcinoma cell line growth inhibition [POLQ]; active means viability on the fitted dose curve at most 10% of control; inactive means the rest
# experimental.parameters: second compound 3.16 µM; first compound 0.316 µM
Classes used: active, inactive

- C#Cc1c(F)ccc2cc(O)cc(-c3ncc4c(N5CC6CCC(C5)N6)nc(OCC56CCCN5CC(F)C6)nc4c3F)c12 (stereo not drawn) + Cc1cccc(N(C)C(=O)C2C(O)CCN2c2nc(C)cc(C(F)(F)F)c2C#N)c1: inactive
- C=CC(=O)N1CCN(c2nc(=O)n(-c3c(C)ccnc3C(C)C)c3nc(-c4c(O)cccc4F)c(F)cc23)C(C)C1 (stereo not drawn) + Cc1cccc(N(C)C(=O)C2C(O)CCN2c2nc(C)cc(C(F)(F)F)c2C#N)c1: inactive
- C=CCn1c(=O)c2cnc(Nc3ccc(N4CCN(C)CC4)cc3)nc2n1-c1cccc(C(C)(C)O)n1 + Cc1cccc(N(C)C(=O)C2C(O)CCN2c2nc(C)cc(C(F)(F)F)c2C#N)c1: inactive
- CCc1cc2c(N3CCc4c(cc(Cn5ccnc5)cc4-c4cn(C)nc4C(F)(F)F)C3=O)ccnc2c(OC)n1 + Nc1ccc(C#CCN(C(=O)Cc2ncc(C(F)(F)F)cc2C(F)(F)F)c2ccc(F)cc2)nn1: inactive
- O=c1[nH]cc(F)c(=O)[nH]1 + COC1C(OC(N)=O)C(O)C(Oc2ccc3c(O)c(NC(=O)c4ccc(O)c(CC=C(C)C)c4)c(=O)oc3c2C)OC1(C)C: inactive
- C#Cc1c(F)ccc2cc(O)cc(-c3ncc4c(N5CC6CCC(C5)N6)nc(OCC56CCCN5CC(F)C6)nc4c3F)c12 (stereo not drawn) + COC1C(OC(N)=O)C(O)C(Oc2ccc3c(O)c(NC(=O)c4ccc(O)c(CC=C(C)C)c4)c(=O)oc3c2C)OC1(C)C: inactive
- COc1ccc([C@@H](O)c2cc(-c3ncnc4cc(N5CCOCC5)ccc34)c(F)cc2Cl)nn1 + Nc1ccc(C#CCN(C(=O)Cc2ncc(C(F)(F)F)cc2C(F)(F)F)c2ccc(F)cc2)nn1: inactive
- CC1COCCN1c1cc(-c2ccnn2C)c2ccnc(-c3ccn[nH]3)c2n1 (stereo not drawn) + Nc1ccc(C#CCN(C(=O)Cc2ncc(C(F)(F)F)cc2C(F)(F)F)c2ccc(F)cc2)nn1: inactive
- Nc1ccn(C2OC(CO)C(O)C2(F)F)c(=O)n1 (stereo not drawn) + Nc1ccc(C#CCN(C(=O)Cc2ncc(C(F)(F)F)cc2C(F)(F)F)c2ccc(F)cc2)nn1: active
- CC1COCCN1c1cc(C2(O)CC3CCC(C2)O3)c2cnn(-c3ccn[nH]3)c2n1 (stereo not drawn) + Cc1cccc(N(C)C(=O)C2C(O)CCN2c2nc(C)cc(C(F)(F)F)c2C#N)c1: inactive
- Nc1ccn(C2OC(CO)C(O)C2(F)F)c(=O)n1 (stereo not drawn) + Cc1cccc(N(C)C(=O)C2C(O)CCN2c2nc(C)cc(C(F)(F)F)c2C#N)c1: inactive
- O=C(Nc1ccc(O)c(NS(=O)(=O)c2ccc(F)cc2)c1)c1ccc(-c2ccccc2)cc1 + Nc1ccc(C#CCN(C(=O)Cc2ncc(C(F)(F)F)cc2C(F)(F)F)c2ccc(F)cc2)nn1: inactive
- CCCS(=O)(=O)Nc1ccc(F)c(C(=O)c2c[nH]c3ncc(-c4ccc(Cl)cc4)cc23)c1F + Nc1ccc(C#CCN(C(=O)Cc2ncc(C(F)(F)F)cc2C(F)(F)F)c2ccc(F)cc2)nn1: inactive
- CCc1cc2c(N3CCc4c(cc(Cn5ccnc5)cc4-c4cn(C)nc4C(F)(F)F)C3=O)ccnc2c(OC)n1 + COC1C(OC(N)=O)C(O)C(Oc2ccc3c(O)c(NC(=O)c4ccc(O)c(CC=C(C)C)c4)c(=O)oc3c2C)OC1(C)C: inactive
- COc1cc(C2c3cc4c(cc3C(OC3OC5COC(C)OC5C(O)C3O)C3COC(=O)C23)OCO4)cc(OC)c1O (stereo not drawn) + COC1C(OC(N)=O)C(O)C(Oc2ccc3c(O)c(NC(=O)c4ccc(O)c(CC=C(C)C)c4)c(=O)oc3c2C)OC1(C)C: inactive
- O=C(c1cc(Cc2n[nH]c(=O)c3ccccc23)ccc1F)N1CCN(C(=O)C2CC2)CC1 + Nc1ccc(C#CCN(C(=O)Cc2ncc(C(F)(F)F)cc2C(F)(F)F)c2ccc(F)cc2)nn1: inactive
- COc1cccc2c1C(=O)c1c(O)c3c(c(O)c1C2=O)CC(O)(C(=O)CO)CC3OC1CC(N)C(O)C(C)O1 (stereo not drawn) + Cc1cccc(N(C)C(=O)C2C(O)CCN2c2nc(C)cc(C(F)(F)F)c2C#N)c1: active
- COc1cccc2c1C(=O)c1c(O)c3c(c(O)c1C2=O)CC(O)(C(=O)CO)CC3OC1CC(N)C(O)C(C)O1 (stereo not drawn) + Nc1ccc(C#CCN(C(=O)Cc2ncc(C(F)(F)F)cc2C(F)(F)F)c2ccc(F)cc2)nn1: active

* * *

# System: 429239-143-T-J1-PDC complex spheroid viability
# run.description: Anticancer human tumor 429239-143-T-J1-PDC cell line growth inhibition [POLQ];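 further: luminescence signal used as surrogate measure of viable cells; spheroids exposed to compounds for seven days before readout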;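 on viability, T/C: 100% = DMSO vehicle control viability as luminescence relative to vehicle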
# experimental.parameters: second compound 1 µM; first compound 1 µM; stronger effect = lower value
measurement.name: viability, T/C (%)

- CC1COCCN1c1cc(C2(S(C)(=N)=O)CC2)nc(-c2ccnc3[nH]ccc23)n1 (centres undefined) + Nc1ccc(C#CCN(C(=O)Cc2ncc(C(F)(F)F)cc2C(F)(F)F)c2ccc(F)cc2)nn1: 90.2
- CCc1cc2c(N3CCc4c(cc(Cn5ccnc5)cc4-c4cn(C)nc4C(F)(F)F)C3=O)cc(C)nc2c(OC)n1 + Cc1cccc(N(C)C(=O)C2C(O)CCN2c2nc(C)cc(C(F)(F)F)c2C#N)c1: 85
- O=C(c1cc(Cc2n[nH]c(=O)c3ccccc23)ccc1F)N1CCN(C(=O)C2CC2)CC1 + Cc1cccc(N(C)C(=O)C2C(O)CCN2c2nc(C)cc(C(F)(F)F)c2C#N)c1: 63.4
- CC(C)n1c(=O)n(C)c2cnc3cc(F)c(-c4ccc(OCCCN5CCCCC5)nc4)cc3c21 + COC1C(OC(N)=O)C(O)C(Oc2ccc3c(O)c(NC(=O)c4ccc(O)c(CC=C(C)C)c4)c(=O)oc3c2C)OC1(C)C: 96.9

* * *

# Tested on: 429239-143-T-J1-PDC complex spheroid viability
# run.description: Anticancer human tumor 429239-143-T-J1-PDC cell line growth inhibition [POLQ];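 further: luminescence signal used as surrogate measure of viable cells; spheroids exposed to compounds for seven days before readout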;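 on viability, T/C: 100% = DMSO vehicle control viability as luminescence relative to vehicle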
# experimental.parameters: second compound 0.316 µM; first compound 0.0316 µM; stronger effect = lower value
measurement.name: viability, T/C (%)

• CNCc1ccc(-c2[nH]c3cc(F)cc4c3c2CCNC4=O)cc1 + Nc1ccc(C#CCN(C(=O)Cc2ncc(C(F)(F)F)cc2C(F)(F)F)c2ccc(F)cc2)nn1 = 97.2
• O=c1[nH]cc(F)c(=O)[nH]1 + Cc1cccc(N(C)C(=O)C2C(O)CCN2c2nc(C)cc(C(F)(F)F)c2C#N)c1 = 96.6
• CNCc1ccc(-c2[nH]c3cc(F)cc4c3c2CCNC4=O)cc1 + COC1C(OC(N)=O)C(O)C(Oc2ccc3c(O)c(NC(=O)c4ccc(O)c(CC=C(C)C)c4)c(=O)oc3c2C)OC1(C)C = 102
• COc1cccc2c1C(=O)c1c(O)c3c(c(O)c1C2=O)CC(O)(C(=O)CO)CC3OC1CC(N)C(O)C(C)O1 (centres undefined) + COC1C(OC(N)=O)C(O)C(Oc2ccc3c(O)c(NC(=O)c4ccc(O)c(CC=C(C)C)c4)c(=O)oc3c2C)OC1(C)C = 68.8

* * *

# Tested on: 429239-143-T-J1-PDC complex spheroid viability
# run.description: Anticancer human tumor 429239-143-T-J1-PDC cell line growth inhibition [POLQ];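 further: luminescence signal used as surrogate measure of viable cells; spheroids exposed to compounds for seven days before readout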
# experimental.parameters: curve of first compound; second compound 0.0316 µM
pIC50: −log10 of the molar value.
Listed next: entries and their corresponding pIC50.
measurement.name: pIC50

* Cn1ncnc1[C@H]1c2n[nH]c(=O)c3cc(F)cc(c23)N[C@@H]1c1ccc(F)cc1 + Nc1ccc(C#CCN(C(=O)Cc2ncc(C(F)(F)F)cc2C(F)(F)F)c2ccc(F)cc2)nn1 | < 7.00
* COc1cc2cc(C(=O)CCC(=O)O)sc2cc1OC + COC1C(OC(N)=O)C(O)C(Oc2ccc3c(O)c(NC(=O)c4ccc(O)c(CC=C(C)C)c4)c(=O)oc3c2C)OC1(C)C | < 5.00
* C#Cc1c(F)ccc2cc(O)cc(-c3ncc4c(N5CC6CCC(C5)N6)nc(OCC56CCCN5CC(F)C6)nc4c3F)c12 (stereo unspecified) + Cc1cccc(N(C)C(=O)C2C(O)CCN2c2nc(C)cc(C(F)(F)F)c2C#N)c1 | < 5.00
* CC(C)n1c(=O)n(C)c2cnc3cc(F)c(-c4ccc(OCCCN5CCCCC5)nc4)cc3c21 + Cc1cccc(N(C)C(=O)C2C(O)CCN2c2nc(C)cc(C(F)(F)F)c2C#N)c1 | < 5.00
* O=C(Nc1ccc(O)c(NS(=O)(=O)c2ccc(F)cc2)c1)c1ccc(-c2ccccc2)cc1 + Nc1ccc(C#CCN(C(=O)Cc2ncc(C(F)(F)F)cc2C(F)(F)F)c2ccc(F)cc2)nn1 | < 5.00
* CC1COCCN1c1cc(C2(S(C)(=N)=O)CC2)nc(-c2ccnc3[nH]ccc23)n1 (stereo unspecified) + Nc1ccc(C#CCN(C(=O)Cc2ncc(C(F)(F)F)cc2C(F)(F)F)c2ccc(F)cc2)nn1 | < 5.00
